Values compiled from paper PMC3991570.

Reported values of pIC50 for individual entries
Target: recombinant human ATX/ENPP2 (Homo sapiens, UniProt Q13822)
Construct: (His)6 (C); made in house; host or cells: baculovirus AcNPV; virus made in Sf9, protein expressed in expresSF+ insect cells, from culture supernatant
Assay: Choline release assay, 16:0-LPC substrate, overnight (15 h) incubation
Assay type: biochemical
Settings: about 15 h incubation, read-out: In vitro IC50, Recombinant human ATX/ENPP2, Choline (O/N)
pIC50: −log10 of the molar value.
metric name: pIC50

- compound: "CCCCCCCCCCCCCC(=O)Nc1ccc(CP(=O)(O)O)cc1 [S32826]"
  metric name: "pIC50"
  measurement qualifier: "<"
  measurement: 5.00
- compound: "O=C1S/C(=C\\c2ccc(OCc3cccc(B(O)O)c3)cc2)C(=O)N1Cc1ccc(F)cc1 [HA130]"
  metric name: "pIC50"
  measurement qualifier: "="
  measurement: 6.24

###

Molecular target: recombinant human ATX/ENPP2 (Homo sapiens, UniProt Q13822)
Construct: (His)6 (C); made in house; host or cells: baculovirus AcNPV; virus made in Sf9, protein expressed in expresSF+ insect cells, from culture supernatant
Test: Choline release assay, 16:0-LPC substrate, 30 min incubation
Type: biochemical
Details: read-out: In vitro IC50, Recombinant human ATX/ENPP2, Choline (30 min)
Protocol: In the choline release assay, a series of reaction mixtures containing different concentrations of the inhibitors were tested in parallel. Recombinant ATX/ENPP2 was dissolved in 100 mM Tris-HCl buffer (pH 9.0) containing 500 mM NaCl, 5 mM MgCl2 and 0.05% Triton X-100. […] Fluorescence at 590 nm was measured with excitation at 544 nm and the amount of choline released in each reaction mixture was quantified based on a calibration curve created from a choline chloride standard. […]
metric name: IC50

- compound: "CCCCCCCCCCCCCC(=O)Nc1ccc(CP(=O)(O)O)cc1 [S32826]"
  metric name: "IC50"
  measurement: "66 nM"
- compound: "O=C1S/C(=C\\c2ccc(OCc3cccc(B(O)O)c3)cc2)C(=O)N1Cc1ccc(F)cc1 [HA130]"
  metric name: "IC50"
  measurement: "43 nM"
